target: 1,4-dihydroxy-2-naphthoyl-CoA synthase (Mycobacterium tuberculosis (strain ATCC 25618 / H37Rv)) (UniProt P9WNP5); assay: M. tuberculosis MenB inhibitors, primary screen, biochemical, absorbance (AID 540299); conditions: MenB enzyme assay, absorbance read-out; concentration not given here
Sequence (P9WNP5 whole entry, looked up): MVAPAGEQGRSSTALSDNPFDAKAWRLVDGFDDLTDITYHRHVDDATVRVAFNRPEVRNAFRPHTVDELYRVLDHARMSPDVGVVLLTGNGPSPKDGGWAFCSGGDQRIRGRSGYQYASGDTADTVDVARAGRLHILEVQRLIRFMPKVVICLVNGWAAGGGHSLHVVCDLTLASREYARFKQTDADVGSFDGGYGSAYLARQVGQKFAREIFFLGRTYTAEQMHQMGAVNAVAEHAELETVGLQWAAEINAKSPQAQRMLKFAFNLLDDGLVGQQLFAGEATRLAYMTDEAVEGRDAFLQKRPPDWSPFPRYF
Among all 100,000 compounds or so, about 440 (0.44%) were called active. Rule as the data show it: active = inhibition above about 21% (passing the limit was not always enough); inactive = the rest. This is one part of a sample in which actives are shown more often than they occur.
# valid calls are Yes = active, No = inactive; nothing else

Just curious, what result did CN1C(=O)C(C)(C)c2cc(S(=O)(=O)NCCc3ccco3)ccc21 get here?
No

Just curious, what result did CCOc1ccc(CN(C)C(C)c2nnc(-c3ccc(C)cc3)o2)cc1 (stereo not given) get here?
No

Just curious, what result did COc1ccc(N2CCN(C(=S)C3CCCCC3)CC2)cc1 get here?
No

Just curious, what result did CCOC(=O)C1(Cc2ccc(O)cc2)NC(c2ccccc2F)C2C(=O)N(C)C(=O)C21 (stereo not given) get here?
No

Just curious, what result did CC(Oc1ccccc1)c1nn2c(-c3cccnc3)nnc2s1 (stereo not given) get here?
No
